system: B16-F10; test: Cytotoxicity against mouse B16F10 cells assessed as suppression of cell viability after 72 hrs; type: cell-based; conditions: Mus musculus, B16-F10, 72 h
REPORTED PROPERTY: IC50

Please give the documented IC50 of Oc1ccc(/C=C/c2cc(O)cc(O)c2)cc1 [RESVERATROL]
> 200 µM
